Numbers sourced from patent US20170367338A1.

Test system: C. elegans
ASSAY METHOD TEXT: Three day C. elegans well assay
Type: in vivo
EXPERIMENTAL CONTEXT: Caenorhabditis elegans, 48 h; L4 larvae, two days of exposure; read-out: EC50 L4 2D
Known EC50 of a selection of compounds
Return type: number; implicit unit µg/mL.

Fc1cc(Cl)ccc1-c1noc(-c2cccs2)n1 | 1.6
Cc1cc(F)ccc1-c1noc(-c2ccco2)n1 | 1.6
Fc1cc(Cl)ccc1-c1noc(-c2ccco2)n1 | 1.6
Brc1ccccc1-c1cnc(-c2cccs2)o1 | 6.3
Fc1cc(Br)ccc1-c1noc(-c2ccco2)n1 | 1.6
Clc1ccccc1-c1cnc(-c2cccs2)o1 | 6.3

Kindly review the next compound as well.
stdin: // returns reported EC50 for input Cc1cc(Br)ccc1-c1noc(-c2ccco2)n1
stdout: 1.6
